Data origin, for the record: a melting point compilation (Tetko et al.; mined from patent text by program, amines drawn as free bases though some values may be those of a salt)

Listed below: melting point values for each entry.
endpoint: melting point

[[record]]
molecule = "CCOC(=O)Cc1nc(-c2ccc(Cl)cc2)oc1C"
test_value = "69 to 70 °C"

[[record]]
molecule = "O=S(=O)(NCCNCC=Cc1ccc(Cl)cc1)c1cccc2cnccc12"
test_value = "120 to 123 °C"

[[record]]
molecule = "COc1ccc(C2=NN(SC(C)C)C(=O)C2(SC(C)C)SC(C)C)cc1"
test_value = "52 to 54 °C"

[[record]]
molecule = "C#Cc1cnc2c(NC(=O)c3c(Cl)cccc3Cl)cccc2c1"
test_value = "219 to 220 °C"

[[record]]
molecule = "CSc1ccc(-c2ccccc2)c([N+](=O)[O-])c1"
test_value = "51 to 52 °C"

[[record]]
molecule = "O=C1C(c2cccc(C(F)(F)F)c2Cl)=NN(CCCCC(F)(F)F)C2C=C(Cl)C=CC12 (stereo not given)"
test_value = "137 to 138 °C"

[[record]]
molecule = "Cc1ocnc1-c1cc(C(C)(C)C)c(O)c(C(C)(C)C)c1"
test_value = "105 to 107 °C"

[[record]]
molecule = "CN(C=O)C1CCC(O)(c2ccc(Cl)c(Cl)c2)c2ccccc21 (stereo not given)"
test_value = "123 to 125 °C"

[[record]]
molecule = "O=C(O)c1ccc(S(=O)(=O)Oc2ccc(-c3ccc(-c4c(C(=O)c5ccccc5)oc5ccccc45)cc3)cc2[N+](=O)[O-])cc1O"
test_value = "105 to 107 °C"

[[record]]
molecule = "COC(=O)Nc1ccc(Cl)c(F)c1I"
test_value = "137 to 139 °C"

[[record]]
molecule = "CCN(C)c1nc2sc3c(NCc4ccccn4)ncnc3c2c2c1CCC(C)(C)C2"
test_value = "152 °C"

[[record]]
molecule = "CC1C(=O)CN[C@H]2c3ccc(Cl)cc3CC[C@H]12 (stereo not given in full)"
test_value = "71.5 to 73 °C"

[[record]]
molecule = "Cn1cc(C(=O)Nc2ccccc2-c2ccc(Cl)cc2Cl)c(C(F)(F)F)n1"
test_value = "136 to 140 °C"

[[record]]
molecule = "CN1C(=O)CN=C(c2ccc(O)cc2)c2cc(Cl)ccc21"
test_value = "225 to 259 °C"

[[record]]
molecule = "O=S(=O)(CCl)c1ncc(Cl)cn1"
test_value = "100 °C"

[[record]]
molecule = "Cc1ccc(N2C(=O)C(O)=C(C(=O)c3ccc(C(C)C)cc3)C2c2ccc(OC(C)C)cc2)nn1 (stereo not given)"
test_value = "280 to 281 °C"

[[record]]
molecule = "CCCCOCCOc1ccc(-c2ccc3c(c2)C=C(C(=O)Nc2ccc(S(=O)Cc4ncnn4C)cc2)CCN3CC(C)C)cc1 (stereo not given)"
test_value = "135 to 138 °C"

[[record]]
molecule = "O=C1Nc2ccccc2Sc2cscc21"
test_value = "215 to 216 °C"

[[record]]
molecule = "O=C(Nc1ccc(N2CCN(C(=O)Nc3ccc(OCCO)cc3C(F)(F)F)CC2)cc1)Nc1ccccc1OC(F)F"
test_value = "118 to 120 °C"

[[record]]
molecule = "CCC1=Nc2ccccc2CC(c2cccnc2)N1C (stereo not given)"
test_value = "72 to 75 °C"


====

Catalogue of melting point values
endpoint: melting point

[[record]]
molecule = "CCC(=O)N1Cc2cn[nH]c2-c2ccccc21"
test_value = "130 to 131 °C"

[[record]]
molecule = "CCOC(=O)N1CCC(Oc2ccccc2)(c2ccccc2)CC1"
test_value = "117 to 118 °C"

[[record]]
molecule = "Cc1ccc2oc(=O)c(C(=O)Oc3cc(Cl)ccc3Cl)cc2c1"
test_value = "175 to 179 °C"

[[record]]
molecule = "COC(=O)C1CSC=CCCCC(=O)N1 (stereo not given)"
test_value = "160 to 161 °C"

[[record]]
molecule = "Cc1ccc(C(=O)C2Cc3ccccc3C2=O)cc1 (stereo not given)"
test_value = "103 to 105 °C"

[[record]]
molecule = "CCOC(=O)c1ccc(NC(=O)NC2CN(C(=O)c3cccs3)c3ccc(C)cc3N(CC(=O)c3cccs3)C2=O)cc1 (stereo not given)"
test_value = "244 °C"

[[record]]
molecule = "N#CN1CCN(c2nn(-c3ccccc3)c3cc(F)ccc23)CC1"
test_value = "172 to 174 °C"

[[record]]
molecule = "CC1(CCN2CCN(C(C)(C)C)C(=O)C2)Cn2cc([N+](=O)[O-])nc2O1 (stereo not given)"
test_value = "153 to 154 °C"

[[record]]
molecule = "CN(C)Cc1ccc([C@H]2CC[C@H](O)CC2)cc1"
test_value = "63 to 65 °C"

[[record]]
molecule = "O=C1Cc2c(cccc2-c2ccccc2)N1"
test_value = "192 to 194 °C"

[[record]]
molecule = "Cc1nnc(SCC2=C(C(=O)O)N3C(=O)C(NC(=O)CC4=CSCCS4)C3SC2)s1 (stereo not given)"
test_value = "170 °C"

[[record]]
molecule = "CSc1ccc(C(=O)Nc2cc(-c3c(-c4ccc(F)c(C)c4)nc4cccnn34)ccn2)cc1"
test_value = "191 to 192 °C"

[[record]]
molecule = "CC(C)Oc1ccc(-c2nn(C(C)c3oc4ccccc4c(=O)c3-c3cccc(F)c3)c3ncnc(N)c23)cc1Cl (stereo not given)"
test_value = "198 to 200 °C"

[[record]]
molecule = "Nc1ccc(C(c2ccccc2F)n2ccnc2)cc1[N+](=O)[O-] (stereo not given)"
test_value = "176 °C"

[[record]]
molecule = "CC(=O)c1ccc(NS(C)(=O)=O)c(Br)c1"
test_value = "124 to 126 °C"

[[record]]
molecule = "O=[N+]([O-])c1cc(-c2nnn[nH]2)ccc1OCc1ccccc1"
test_value = "178 to 180 °C"

[[record]]
molecule = "CC(CCc1ccc(F)cc1)NCc1c(CO)ccc(O)c1CO (stereo not given)"
test_value = "101 to 103 °C"

[[record]]
molecule = "CCNC(=O)[C@@H]1CCCN1C(=O)[C@H](C)NC(=O)C12CC3CC(CC(C3)C1)C2"
test_value = "116 to 118 °C"

[[record]]
molecule = "CC(C)(C)c1ccc(CCC(C=O)CC2CCCCC2)cc1NC(=O)CC1c2ccccc2Oc2ccccc21 (stereo not given)"
test_value = "117 to 118 °C"

[[record]]
molecule = "COC(=O)CC(C)C1CCC2C3CC=C4CC(O)CC(O)C4(C)C3CCC12C (stereo not given)"
test_value = "144 to 146 °C"


====

endpoint: melting point

[[record]]
compound = "Cc1[nH]cnc1/C=C/C(=O)c1cc2ccccc2s1"
endpoint = "melting point"
test_value = "188 to 190 °C"

[[record]]
compound = "CCOC(=O)C1C(=O)N(c2ccc(Cl)c(Cl)c2)N=C1C (stereo not given)"
endpoint = "melting point"
test_value = "147 to 148 °C"

[[record]]
compound = "O=Cc1c(F)cccc1Sc1ccc(F)cc1"
endpoint = "melting point"
test_value = "94 to 97 °C"

[[record]]
compound = "Cc1cc2c(cc1Cl)[nH]c1c(C(=O)O)cccc12"
endpoint = "melting point"
test_value = "310 °C"

[[record]]
compound = "CCOC(=O)C1=C(C)NC(O)(c2ccc([N+](=O)[O-])cc2)C(C(=O)OCC)C1c1cccc([N+](=O)[O-])c1 (stereo not given)"
endpoint = "melting point"
test_value = "196 to 197 °C"

[[record]]
compound = "CCOC(=O)c1c(CCCn2cncn2)nc2sc3c(c2c1-c1ccc(OC)c(OC)c1)CCN(C(=O)c1ccc(Cl)cc1)C3"
endpoint = "melting point"
test_value = "114 to 116 °C"

[[record]]
compound = "Cc1c(C#N)oc2c(-c3ccc(F)cc3)c(-c3ccc(S(C)(=O)=O)cc3)nn12"
endpoint = "melting point"
test_value = "236 to 238 °C"

[[record]]
compound = "CNc1ncnc2c1c(-c1ccc([N+](=O)[O-])o1)nn2C"
endpoint = "melting point"
test_value = "280 °C"

[[record]]
compound = "Cc1ccc(C)n1-c1ccc(Br)cn1"
endpoint = "melting point"
test_value = "69 °C"

[[record]]
compound = "Cc1nc(NC(=O)C2=C(O)c3ccc4ccccc4c3S(=O)(=O)N2C)sc1C"
endpoint = "melting point"
test_value = "264 to 265 °C"

[[record]]
compound = "CCCCCN1C(=O)C(=O)c2ccccc21"
endpoint = "melting point"
test_value = "50 to 51 °C"

[[record]]
compound = "CCOP(=O)(OCC)C(P(=O)(OCC)OCC)S(=O)(=O)c1cc(C(C)(C)C)c(O)c(C(C)(C)C)c1"
endpoint = "melting point"
test_value = "118 to 120 °C"

[[record]]
compound = "CCOc1ccc2c(c1)C(C)(c1ccccc1Cl)C(=O)N2S(=O)(=O)c1ccc(C(=O)NC(C)(C)CF)cc1 (stereo not given)"
endpoint = "melting point"
test_value = "182 °C"

[[record]]
compound = "Nc1c(Cl)cc(-c2nn(C3CCN(CCCC(F)(F)F)CC3)c(=O)o2)c2c1OCCO2"
endpoint = "melting point"
test_value = "188 °C"

[[record]]
compound = "BrCC[Si](CCBr)(CCBr)CCBr"
endpoint = "melting point"
test_value = "90 to 91 °C"

[[record]]
compound = "O=C(O)C(O)(CC1CCCCC1)c1ccccc1 (stereo not given)"
endpoint = "melting point"
test_value = "138 to 140 °C"

[[record]]
compound = "CCOC(=O)c1cc2n(C)c3ccc(F)cc3c(=O)n2n1"
endpoint = "melting point"
test_value = "288 to 290 °C"

[[record]]
compound = "O=C1c2ccccc2C(=O)c2oc(-c3ccc(Cl)cc3)nc21"
endpoint = "melting point"
test_value = "> 260 °C"

[[record]]
compound = "C=CC(=O)Nc1ccc2ccc(Cl)nc2n1"
endpoint = "melting point"
test_value = "200 °C"

[[record]]
compound = "COC(=O)Cn1c(=O)c2ccccc2n(CCCN2CCC(OC(c3ccccc3)c3ccccc3)CC2)c1=O"
endpoint = "melting point"
test_value = "109 to 110 °C"

